Tested on: MS2 coat protein
Experiment: apparent Kd, MS2 coat protein; higher = weaker binding; RNA-MaP array; tryptophan 2.4 mM where present
Settings: ligand present: tryptophan; designed as: ON switch for tryptophan
Assay Endpoint: apparent Kd (nM)
Answers are plain numbers, in nM.

Please report apparent Kd for every entry that follows.
1. AACAUACAAUAUUAGGUGGAUAUAAGGCGGCGAGGACCGGUACGGCCGCCACUCGCGUACAUGAGGAUCACCCAUGUCUGAAACU
2. AAUAAUAUCCUCAUGUGAGUCGUACCGUAACGAGGACCGGUACGGCCGCCACUCGAACAUGAGGAUCACCCAUGUAGGUACGACA
3. GCAUCCUAGUCGGCCGCCACUGCAUCACCAGUGGCAGGUGAUCAACAUGAGGAUCACCCAUGUAGCAGGACCGGGACUAGGAUGC
4. GGGAGGUAGGCGGCCGCCACUGAUUUUCAUAUAUAUAUAACAUGAGGAUCACCCAUGUAGAUAUGCAGGACCGGGCCUGUUUUUU
5. AUUAAUAAUAUGUAGACGGCGGAGACGAGACGAGGACCGGUACGGCCGCCACUCGUGUUAGUUAACAUGAGGAUCACCCAUGUUA
6. GGUUACUCUACGGCCGCCACUGAACAUGAGGAUCACCCAUGUAAUGUUCAGUAGUCUUUAGACAACAGGACCGGGUAGUGUAACC
7. GUCCUCAUGACGGCCGCCACUAAACAUGAGGAUCACCCAUGUAAUGAUCCAUUAAAUGAUAAUAGUAGGACCGGGUCAAAAUAAA

Result:
1: 23.5; 2: 99.7; 3: 43.7; 4: 19.3; 5: 12.8; 6: 215; 7: 669

Your task in this section: give apparent Kd for each listed record.
1. GGUUACUCUACGGCCGCCACUGUCAUGUAAAGAUACCUGUACAUGACAUGAGGAUCACCCAUGUGCAGGACCGGGUAGUGUAACC
2. UCGGAUGCGGCGGCCGCCACUCGCGGAUAACGAUAGCUUAACAUGAGGAUCACCCAUGUGUCAUGGAGGACCGGGCCCAUACCGU
3. CGAGUAAGAACAAUCGAAUAACGGUUUUCGCGAGGACCGGUACGGCCGCCACUCGUGUGAUAUCACACAUGAGGAUCACCCAUGU
4. UGCAUUAUACAUGGAUCACCCAUGUAGACACGAGGACCGGUACGGCCGCCACUCGGAAGAGGGAACAUGAGGAUCACCCAUGUGA

Result:
1. 130
2. 20.7
3. 41.2
4. 51.5

Request: Returns the measured apparent Kd for the input sequence. Input: CUACAUUUGUAGAAACCGGUCAACAAUAAUCGAGGACCGGUACGGCCGCCACUCGAUGUGUUAUACACAUGAGGAUCACCCAUGU
Result: 17.4

----------
Please respond with reported apparent Kd for every item in the list.
System: MS2 coat protein
Assay: apparent Kd, MS2 coat protein; higher = weaker binding; RNA-MaP array; FMN 200 µM where present
Settings: ligand present: flavin mononucleotide; designed as: OFF switch for flavin mononucleotide
Numbers only, in nM.

Quick batch: apparent Kd for everything below.
1. CUCGUGUAAGGAUAUACGAGUCACGGAAAUAAACCGUGAAGGUAGAAGGUACAUGAGGAUCACCCAUGUAAAAC
2. GGAUAGAUGAAGGGCGAACGCGCACAUGAGGAUCACCCAUGUAGAAGGCGGUCCGCAACGCGGAUCGAGGAUAUAUAGUAUACG

Result:
[347, 16.8]

For each of the sequences below, note its apparent Kd.
1. GAGCGAAAGCUCAAUGUCGAUAGCAGAAGGACAUGUAAAAUCAUGAAAACAUGAGGAUCACCCAUGUAGGAUAUGCUAUCGACU
2. ACUAUACGAGGAUAUACUGACAGGCCUCAGGCAUACAUCAAACAUGAGGAUCACCCAUGUAGAAGGCGUAUACU

Result:
371
68.1

Data origin, for the record: the EternaBench riboswitch data
